Test: Pharmacokinetics of glyburide after intravenous administration (published studies)
Type: in vivo, human
Conditions: both sexes, human, in vivo, iv; Neugebauer et al. 1985; NIDDM males and females; N 20; i.v. dose 1.25 mg
reported.metric: clearance (mL/min)
Output spec: scalar in mL/min, unitless text.

Quick one: give measured clearance for COc1ccc(Cl)cc1C(=O)NCCc1ccc(S(=O)(=O)NC(=O)NC2CCCCC2)cc1 [Glyburide]
73.5

====

Assay: Study 101 Phase 1: plasma glyburide pharmacokinetics, bolus plus 72 h continuous infusion of RP-1127
Assay type: in vivo, human
Details: both sexes, human, plasma, intravenous; 0.4 mg/day
Description: All plasma concentration data were analyzed by nonlinear regression, simultaneously incorporating drug behavior during and after the infusion.
reported.metric: concentration at 1 h after treatment cessation
Could you kindly put the unit after your number?

Please indicate concentration at 1 h after treatment cessation recorded for COc1ccc(Cl)cc1C(=O)NCCc1ccc(S(=O)(=O)NC(=O)NC2CCCCC2)cc1 [Glyburide]
2 ng/mL

====

Assay: Pharmacokinetics of glyburide after intravenous administration (published studies)
Type: in vivo, human
Conditions: male, human, in vivo, iv; McEwen et al. 1982; healthy males; N 20; i.v. dose 1.48 mg
reported.metric: clearance

Read off the recorded clearance for COc1ccc(Cl)cc1C(=O)NCCc1ccc(S(=O)(=O)NC(=O)NC2CCCCC2)cc1 [Glyburide]
48.7 mL/min

====

Experiment: Pharmacokinetics of glyburide after intravenous administration (published studies)
Format: in vivo, human
Conditions: both sexes, human, plasma, iv; Jonsson et al. 2000; healthy males and females, data from Caucasian patients; N 10; i.v. dose 2.0 mg
reported.metric: clearance (mL/min)
Lab book: enter the figure in mL/min, no units written.

Please list clearance recorded for the compound COc1ccc(Cl)cc1C(=O)NCCc1ccc(S(=O)(=O)NC(=O)NC2CCCCC2)cc1 [Glyburide]
28

====

Assay: Pharmacokinetics of glyburide after intravenous administration (published studies)
Assay type: in vivo, human
Settings: both sexes, human, in vivo, iv; Neugebauer et al. 1985; NIDDM males and females; N 20; i.v. dose 1.25 mg
reported.metric: Vd (L)
# value in L; strip the unit string

Please give measured Vd of the following entry: COc1ccc(Cl)cc1C(=O)NCCc1ccc(S(=O)(=O)NC(=O)NC2CCCCC2)cc1 [Glyburide]
11.6

====

Experiment: Pharmacokinetics of glyburide after intravenous administration (published studies)
Type: in vivo, human
Conditions: both sexes, human, in vivo, iv; Morrison et al. 1982; healthy males and females; N 8; i.v. dose 2.4 mg
reported.metric: half-life (h)
Report only the number, with the unit h understood.

Specify half-life for COc1ccc(Cl)cc1C(=O)NCCc1ccc(S(=O)(=O)NC(=O)NC2CCCCC2)cc1 [Glyburide] and stop.
1.18

====

Experiment: Study 101 Phase 1: plasma glyburide pharmacokinetics, bolus plus 72 h continuous infusion of RP-1127
Type: in vivo, human
Details: both sexes, human, plasma, intravenous; 3 mg/day
reported.metric: concentration at 1 h after cessation of dosing (ng/mL)
Hi! Could you send only the number? It should be in ng/mL, unit omitted.

In one line, give reported concentration at 1 h after cessation of dosing of the entry COc1ccc(Cl)cc1C(=O)NCCc1ccc(S(=O)(=O)NC(=O)NC2CCCCC2)cc1 [Glyburide] .
11.9

====

Assay: Study 101 Phase 1: plasma glyburide pharmacokinetics, bolus plus 72 h continuous infusion of RP-1127
Type: in vivo, human
Conditions: human, plasma, intravenous; 433 μg bolus plus 10 mg/day, single subject, at hour 2 (BG below 70 mg/dL)
reported.metric: concentration at 2 h (ng/mL)
Respond with the bare value in ng/mL.

Look up and state reported concentration at 2 h for COc1ccc(Cl)cc1C(=O)NCCc1ccc(S(=O)(=O)NC(=O)NC2CCCCC2)cc1 [Glyburide]
57.9

====

Assay: Pharmacokinetics of glyburide after intravenous administration (published studies)
Format: in vivo, human
Settings: both sexes, human, in vivo, iv; Rydberg et al. 1995; healthy males and females; N 8; i.v. dose 1.0 mg; normalized to 70 kg
reported.metric: clearance (mL/min)
State just the number; it will be interpreted in mL/min.

Write down clearance measured for item COc1ccc(Cl)cc1C(=O)NCCc1ccc(S(=O)(=O)NC(=O)NC2CCCCC2)cc1 [Glyburide]
91

====

Experiment: Pharmacokinetics of glyburide after intravenous administration (published studies)
Assay type: in vivo, human
Conditions: both sexes, human, in vivo, iv; Morrison et al. 1982; healthy males and females; N 8; i.v. dose 2.4 mg
Text: All patents and publications discussed herein are hereby incorporated by reference in their entireties.
reported.metric: clearance (mL/min)
Your answer should be a plain number; it is taken to be in mL/min.

Specify clearance for COc1ccc(Cl)cc1C(=O)NCCc1ccc(S(=O)(=O)NC(=O)NC2CCCCC2)cc1 [Glyburide] and stop.
73.7
